# Organism: Rattus norvegicus
# TEST_NAME: Open TG-GATES - Regimen: Single
# Assay type: toxicity, organism-based, Sprague-Dawley
# Design: regimen Single, gender Male, age 6 weeks
# PARTICULARS: in vivo, po, 10 mg/kg, 9 h, tissue Blood, route gavage, dose level Low
# note: exactly 300 mg/dL is not below, so it is Not fulfilled; use Fulfilled for Fbg strictly under it

MOLECULE: CN(C)CCN(Cc1cccs1)c1ccccn1
LABEL_CLASS: Not fulfilled
--
MOLECULE: CN(C)CCCN1c2ccccc2CCc2ccc(Cl)cc21
LABEL_CLASS: Fulfilled
--
MOLECULE: CC(C)OC(=O)C(C)(C)Oc1ccc(C(=O)c2ccc(Cl)cc2)cc1 [FENOFIBRATE]
LABEL_CLASS: Fulfilled

###

Item-by-item account of TP
# Species: Rattus norvegicus
# TEST_NAME: Open TG-GATES - Regimen: Daily Repeat
# Assay type: toxicity, organism-based, Sprague-Dawley
# Design: regimen Daily Repeat, gender Male, age 6 weeks
# PARTICULARS: in vivo, po, 10 mg/kg, 72 h, tissue Plasma, route gavage, dose level Low, time 3 day
ASSAY_READOUT: TP (g/dL)

COMPOUND: CC(C)OC(=O)C(C)(C)Oc1ccc(C(=O)c2ccc(Cl)cc2)cc1 [FENOFIBRATE]
ASSAY_READOUT: TP
REPORTED_VALUE: 5.6

COMPOUND: CN(C)CCN(Cc1cccs1)c1ccccn1
ASSAY_READOUT: TP
REPORTED_VALUE: 5.6

COMPOUND: CN(C)CCCN1c2ccccc2CCc2ccccc21
ASSAY_READOUT: TP
REPORTED_VALUE: 5.8

COMPOUND: CC1=C(/C=C/C(C)=C/C=C/C(C)=C/CO)C(C)(C)CCC1
ASSAY_READOUT: TP
REPORTED_VALUE: 5.6

###

# Species: Rattus norvegicus
# TEST_NAME: Open TG-GATES - Regimen: Single
# Type: toxicity, organism-based, Sprague-Dawley
# Set-up: regimen Single, gender Male, age 6 weeks
# PARTICULARS: in vivo, po, 300 mg/kg, 9 h, tissue Plasma, route gavage, dose level Middle
ASSAY_READOUT: ALT

MOLECULE: COC1=CC(=O)C[C@@H](C)[C@]12Oc1c(Cl)c(OC)cc(OC)c1C2=O
REPORTED_VALUE: 30.8 IU/L
--
MOLECULE: NC(N)=Nc1nc(CSCCC(N)=NS(N)(=O)=O)cs1
REPORTED_VALUE: 26.6 IU/L
--
MOLECULE: CCOC(=O)CCC(=O)O[C@H]1[C@H](O[C@@H]2[C@@H](C)[C@H](O[C@H]3C[C@@](C)(OC)[C@@H](O)[C@H](C)O3)[C@@H](C)C(=O)O[C@H](CC)[C@@](C)(O)[C@H](O)[C@@H](C)C(=O)[C@H](C)C[C@@]2(C)O)O[C@H](C)C[C@@H]1N(C)C [ERYTHROMYCIN ETHYLSUCCINATE]
REPORTED_VALUE: 33.8 IU/L
--
MOLECULE: COc1ccc2[nH]c([S+]([O-])Cc3ncc(C)c(OC)c3C)nc2c1 (centres undefined)
REPORTED_VALUE: 27.6 IU/L
